meta.source: patent US10947242B2

# IC50 annotations
Target: Human recombinant PDE10A (hPDE10A) (Homo sapiens)
Construct: His tag (inferred from metal chelate purification); made in house; host or cells: Sf9 insect cells (baculovirus)
Sequence (Q9Y233 267-1055): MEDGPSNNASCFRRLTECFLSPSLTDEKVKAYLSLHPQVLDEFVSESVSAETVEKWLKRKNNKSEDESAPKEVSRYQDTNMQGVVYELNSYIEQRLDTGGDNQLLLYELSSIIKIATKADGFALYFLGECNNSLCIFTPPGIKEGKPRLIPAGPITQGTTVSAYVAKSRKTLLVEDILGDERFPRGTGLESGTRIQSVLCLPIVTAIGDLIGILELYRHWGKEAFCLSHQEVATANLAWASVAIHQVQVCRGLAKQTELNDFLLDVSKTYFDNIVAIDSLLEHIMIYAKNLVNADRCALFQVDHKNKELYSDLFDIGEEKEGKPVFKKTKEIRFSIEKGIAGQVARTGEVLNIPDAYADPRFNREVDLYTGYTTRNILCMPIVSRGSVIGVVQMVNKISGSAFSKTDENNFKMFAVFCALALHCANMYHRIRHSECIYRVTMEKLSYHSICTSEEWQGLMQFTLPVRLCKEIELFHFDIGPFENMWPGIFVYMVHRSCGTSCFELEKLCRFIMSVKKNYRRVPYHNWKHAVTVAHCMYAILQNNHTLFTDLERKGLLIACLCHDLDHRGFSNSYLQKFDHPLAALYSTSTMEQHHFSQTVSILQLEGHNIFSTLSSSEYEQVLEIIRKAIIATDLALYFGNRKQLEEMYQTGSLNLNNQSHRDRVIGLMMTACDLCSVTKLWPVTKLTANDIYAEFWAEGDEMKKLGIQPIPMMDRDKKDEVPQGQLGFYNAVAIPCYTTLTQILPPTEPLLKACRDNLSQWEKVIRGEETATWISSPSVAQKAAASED
Assay: In vitro assay PDE10A, human clone (SPA, 3H-cAMP hydrolysis)
Type: biochemical
Details: human clone (h), default; read-out: hPDE10A2 pIC50 (converted)
Hi! Could you send only the number? It should be in nM, unit omitted.

Consider the worked cases shown below.
> print(dat)
                                   molecule  measured.result
1  Cc1cc(C(=O)N2[C@H]3CC[C@H](c4cc(C(F)F)nc5ncnn45)[C@@H]2CC3)cc(C)n1 (racemic) [Compound 31]             1120
2  Cc1nc2ccc(C(=O)N3CC[C@@H](C)[C@H](c4cc(C(F)F)nc5ncnn45)C3)cc2o1             25.7
3  Cc1cc(C(=O)N2CC[C@@H](C)[C@H](c3cc(C(F)F)nc4ncnn34)C2)c(C(F)(F)F)cn1             4170
4  C[C@@H]1CCN(C(=O)c2cnc(CF)cn2)C[C@H]1c1cc(C(F)F)nc2ncnn12             7760
5  C[C@@H]1CCN(C(=O)c2ccc(C(F)(F)F)nc2Cl)C[C@H]1c1cc(C(F)F)nc2ncnn12             8130

Task: Name the reported IC50 value associated with the molecule COc1cc(C(=O)N2CC[C@@H](C)[C@H](c3cc(C(F)F)nc4ncnn34)C2)cc(Cl)n1
Result: 52.5

Task: Recorded IC50 of C[C@@H]1CCN(C(=O)c2cnc(N(C)C)nc2)C[C@H]1c1cc(C(F)F)nc2ncnn12 , please.
Result: 575

Task: Recorded IC50 of C[C@@H]1CCN(C(=O)c2cc3c(nc2Cl)CCCC3)C[C@H]1c1cc(C(F)F)nc2ncnn12 , please.
Result: 1290

Task: Suppose we examine the molecule C[C@@H]1CCN(C(=O)c2ccc(O)c(C#N)c2)C[C@H]1c1cc(C(F)F)nc2ncnn12 ; what IC50 value has been reported?
Result: 19.5

Task: Need IC50, item Cc1cc(C(=O)N2CC[C@@H](C)[C@H](c3cc(C(F)F)nc4ncnn34)C2)cc(F)c1F
Result: 186
